B1: MMP1 (parent)
chain: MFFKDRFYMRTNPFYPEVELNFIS

# Variants of: B1
# PROTOCOL: protein stability index of a GFP-peptide fusion (GPS, HEK-293T) (PSI 1-6); higher = more stable;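 also: lentivirally expressed fusions sorted by FACS into six bins by GFP to DsRed ratio, PSI derived from sequencing read proportions per bin multiplied by bin number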
# APPLIED CONDITIONS: c terminus: a fixed tail appended
REPORTED METRIC: protein stability index
Output spec: single numeric token, no unit.

Input line: Entry under review: K4Y . Reported protein stability index?
Output line: 3.55

Input line: Then what about the variant F2N ?
Output line: 1.93

Input line: Then what about the variant T11S ?
Output line: 2.32

Input line: Then what about the variant R10H ?
Output line: 2.42

Input line: Then what about the variant N21Y ?
Output line: 3.15

Input line: Then what about the variant R6Y ?
Output line: 3.35

Input line: Then what about the variant S24K ?
Output line: 2.83

Input line: Then what about the variant N21M ?
Output line: 1.94

Input line: Then what about the variant V18S ?
Output line: 3.28

Input line: Then what about the variant F2E ?
Output line: 2.98

Input line: Then what about the variant Y8P ?
Output line: 2.98

Input line: Then what about the variant T11A ?
Output line: 3.18

Input line: Then what about the variant L20N ?
Output line: 2.06

Input line: Then what about the variant E19T ?
Output line: 2.44

Input line: Then what about the variant F14I ?
Output line: 2.54

Input line: Then what about the variant E19K ?
Output line: 4.43

Input line: Then what about the variant V18H ?
Output line: 3.06

Input line: Then what about the variant M9K ?
Output line: 2.59

Input line: Then what about the variant E17N ?
Output line: 3.69

Input line: Then what about the variant L20Q ?
Output line: 1.36

Input line: Then what about the variant M1I ?
Output line: 2.17

Input line: Then what about the variant M1E ?
Output line: 2.86
